Target: HLA-A*02:01 (Homo sapiens, UniProt P04439, D140Y/D185E/D98H/E176V/E277Q/G131W/G231S/I119V/I121R/I166T/I218V/L300P/L318F/N151K/N90K/P208A/P217A/Q86G/Q94H/R138H/R169H/T345S)
Assay: MHC binding assay (UV-ligand exchange, beta2m ELISA, peptide exchange yield)
Details: binding to HLA-A*02:01, β2m ELISA
Source text: Candidate peptides for T cell based therapies according to the present invention were further tested for their MHC binding capacity (affinity). The individual peptide-MHC complexes were produced by UV-ligand exchange, where a UV-sensitive peptide is cleaved upon UV-irradiation, and exchanged with the peptide of interest as analyzed. Only peptide candidates that can effectively bind and stabilize the peptide-receptive MHC molecules prevent dissociation of the MHC complexes. […]
OBSERVATION TYPE: Peptide exchange (MHC class I binding score, peptide exchange yield)

{"SUBSTANCE": "142 (SLVQRVETI; listed as Homo sapiens) [compound 142]", "RESULT": "“+++” (≥50 = +++)"}
{"SUBSTANCE": "133 (RTFEKIEEV; listed as Homo sapiens) [compound 133]", "RESULT": "“++” (≥20% = ++)"}
{"SUBSTANCE": "120 (VLYEGVDEV; listed as Homo sapiens) [compound 120]", "RESULT": "“++” (≥20% = ++)"}
{"SUBSTANCE": "170 (ALAGGITMV; listed as Homo sapiens) [compound 170]", "RESULT": "“+++” (≥50 = +++)"}
{"SUBSTANCE": "85 (ILHDINSDGVL; listed as Homo sapiens) [compound 85]", "RESULT": "“++” (≥20% = ++)"}
{"SUBSTANCE": "151 (SAQGSDVSLTACKV; listed as Homo sapiens) [compound 151]", "RESULT": "“+++” (≥50 = +++)"}
{"SUBSTANCE": "97 (ALWWGVVTV; listed as Homo sapiens) [compound 97]", "RESULT": "“++” (≥20% = ++)"}
{"SUBSTANCE": "48 (FLDASDPAL; listed as Homo sapiens) [compound 48]", "RESULT": "“++” (≥20% = ++)"}
